Tested on: HCT116 cells
EXPERIMENT: Whole cell cytotoxicity assay: Sulforhodamine B
Format: cell-based
CONDITION: Homo sapiens, HCT-116; 100 μM compound; 48 hours incubation with drug; Sulforhodamine B staining; read-out: % Inhibition of HCT116 cell growth @ 100 μM
ENDPOINT_NAME: inhibition at 100 µM (%)
All answers are understood in %, so give the number only.

The examples below pair each entry with its known result.
>>> endpoint_value("Cc1cc2c3c([nH]c2cc1Cl)CCN(c1ncc(C(=O)NO)cn1)C3")
99.3
>>> endpoint_value("Cc1ccc2[nH]c3c(c2c1Cl)CN(c1ncc(C(=O)NO)cn1)CC3")
98.9
>>> endpoint_value("C[S+]([O-])c1cccc(-c2ccc3[nH]c4c(c3c2)CN(c2ncc(C(=O)NO)cn2)CC4)c1 (centres unmarked)")
95.7
>>> endpoint_value("Cc1ccc(-c2ccc3[nH]c4c(c3c2)CN(c2ncc(C(=O)NO)cn2)CC4)cc1")
98.7

## Task Form field - read-out: inhibition at 100 µM; system: HCT116 cells; submitted item: `COc1ccc2c(c1)CN(c1ncc(C(=O)NO)cn1)CC2`
## Result 99.5
